Kindly state protein stability index for each of the entries shown.
Assay: protein stability index of a GFP-peptide fusion (GPS, HEK-293T) (PSI 1-6); higher = more stable;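 further: 24-mer peptide tiles fused after GFP, lentivirally expressed, FACS-sorted into six equal bins by GFP/DsRed ratio, decoded by Illumina sequencing, PSI is the read-weighted mean bin number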
Details: treatment: DMSO; c terminus: a fixed tail appended
One number for each entry.

Consider the following illustrative entries.
RESIDUE_STRING: GAQIWCGEGVDKLSLPARNQAGYF [ALDH8A1]
READOUT_NUMBER: 2.47

RESIDUE_STRING: KTRTVFSSTQLCVLNDRFQRQKYL [NANOGP8]
READOUT_NUMBER: 2.5

RESIDUE_STRING: VFISSYMVLAPVFGYLGDRYNRKY [SPNS1]
READOUT_NUMBER: 3.16

RESIDUE_STRING: PGPQDPEESASRQRFGEALQDQEK [ELOA2]
READOUT_NUMBER: 5.53

RESIDUE_STRING: RCLHMDQLQDFNIPQAGGWGPWGP [ADAMTS4]
READOUT_NUMBER: 2.24

Batch: protein stability index for all items listed.
1. DMLREMFSDSRSNNDDDEDEDDED [TAF7L]
2. LSGGLGAGSCRLGSAGGLGSTLGG [KRT17]

[5.36, 2.47]

Batch: protein stability index for all items listed.
1. GVGFATRKVAGMAKPNMIISVNGD [FABP4]
2. FQSHEPEFDYLKSLEIEEKINKIR [PPP2R2B]
3. SPVTENSTSLSFLDSCNSLTPKST [MYBL2]
4. SGKVSSSSSSLGNKLQTLSPSHKG [ZC2HC1A]
5. NLTIRAGALTGKENNMLQPETHIF [DMRTC1]
6. LVETNRREVEQWFATQTEELNKQV [KRT33B]
7. VLKTSRSTPLSPAYISLVEEEDQH [KLHL13]

1. 3.02
2. 3.26
3. 4.91
4. 4.31
5. 2.95
6. 4.41
7. 4.77

###

Experiment: protein stability index of a GFP-peptide fusion (GPS, HEK-293T) (PSI 1-6); higher = more stable
Settings: treatment: MLN4924 1 uM, 8 h; c terminus: a fixed tail appended
READOUT: protein stability index
Give bare numbers.

Consider the following illustrative entries.
RESIDUE_STRING: LTISAAFNIVYIYTSELYPTVIRN [SLC22A15]
protein stability index: 3.13

RESIDUE_STRING: REAGFHQYEVSNFARNGALSTHNW [RSAD1]
protein stability index: 3.08

RESIDUE_STRING: DRKSVKFVETRLRDLPDTPRRFTF [TRIM39]
protein stability index: 3.08

Batch: protein stability index for all items listed.
1. VTSFDSVVPEKLDDLVPKGKKFLL [ALG2]
2. FNAGIQQAFQLPKLGALLSRCRKL [ZBED1]
3. LGYLLDKETLRLHPDIFLPSEICD [ZER1]
4. FALQGLPLNCAPCPRRSEPVVQCQ [IRX6]
5. PVPSAPVIDLAESLVADNCVTLVW [FSD1]

[3.31, 2.63, 2.46, 2.79, 2.1]

Batch: protein stability index for all items listed.
1. RRMFSSLFQFSNCSQGQQLATFSS [CCDC3]
2. IFCRDTQTVFQKKNLQQTTNTTST [IQUB]
3. AIETAMEDLKGHVAETSGETIQGF [TPRG1]

[2.34, 3.66, 5.03]

Batch: protein stability index for all items listed.
1. SLFIALITGAYDTIKHPGGAGAEE [MCOLN1]
2. FPYFRSDRDKRDFVSAGAAAGVAA [CLCN6]

[2.2, 3.82]

Batch: protein stability index for all items listed.
1. SCKLVRDKITGQSLGYGFVNYSDP [ELAVL3]
2. QVDVRFFGHHHQRAWIPSENIQDI [ZMYND11]
3. PEQALDTPGDCPPGRRDEDAGEGI [TMEM175]
4. QEILHRDLKLGNFFINEAMELKVG [PLK2]
5. LNDISRKSEGLSGRVLRKLPFLAH [TRIP13]
6. LEVNRLMGKLLQQPNTYADFEFLA [PKD2L1]

1. 2.5
2. 2.94
3. 5.43
4. 2.76
5. 2.57
6. 2.48

###

Assay: protein stability index of a GFP-peptide fusion (GPS, HEK-293T) (PSI 1-6); higher = more stable
Conditions: treatment: DMSO; c terminus: a fixed tail appended
Lab note: compare protein stability index against 4. Equal or greater, write 1.0. Smaller, write 0.0.

Answered cases to consult:
RESIDUE_STRING: ILAFLVLEAVAGALVVALWGPLQD [TSPAN10]
ASSIGNED_LABEL: 0.0
//
RESIDUE_STRING: TMIQQQNMQQPMNVMTQSFGAVNL [CLINT1]
ASSIGNED_LABEL: 0.0

In plain terms: is recorded protein stability index at least 4 for VDYKQSVLNVAGEAGGKQKAVEEE [SLC6A17] ?
1.0

Same for SHLSDTGISALVEIPKNCVVAAVG [WDR41]
0.0

Same for IRSFGHFIARLQGSILQFNPEVGI [SMG5]
0.0

Same for RNIMNLIDIVAIIPYFITLGTELA [KCNA3]
0.0

Same for GAGHCSASPGPAAPTARMPGRLRG
1.0

###

Experiment: protein stability index of a GFP-peptide fusion (GPS, HEK-293T) (PSI 1-6); higher = more stable
Settings: treatment: DMSO; c terminus: a fixed tail appended
Kindly state protein stability index for each of the entries shown.
One number for each entry.

Consider the following illustrative entries.
RESIDUE_STRING: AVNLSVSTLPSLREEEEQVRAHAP [KCNG1]
READOUT: protein stability index
READOUT_NUMBER: 3.83

RESIDUE_STRING: RYGQLIEINSHSLFSKWFSESGKL [TRIP13]
READOUT: protein stability index
READOUT_NUMBER: 2.27

RESIDUE_STRING: AAYFLLSTNDKTVKLWKVSERDKR [PPP2R2B]
READOUT: protein stability index
READOUT_NUMBER: 2.51

RESIDUE_STRING: FQEAQIKRKARNEGRNRRRQQVLP [CDKL4]
READOUT: protein stability index
READOUT_NUMBER: 3.79

RESIDUE_STRING: FAPLWEVFRVSSDKLALCHLELTR [FCHO1]
READOUT: protein stability index
READOUT_NUMBER: 2.68

RESIDUE_STRING: MLSHDNITWIAGAVTKDFKLTDKH [ACSBG2]
READOUT: protein stability index
READOUT_NUMBER: 2.66

RESIDUE_STRING: QDPLKFYKKIYFCHSCQLYLPSTE [IQUB]
READOUT: protein stability index
READOUT_NUMBER: 1.94

RESIDUE_STRING: MVGGNAVPQRTAGGDVPERELYIR [MYORG]
READOUT: protein stability index
READOUT_NUMBER: 3.9

RESIDUE_STRING: EYRQRRERNNIAVRKSRDKAKRRN [CEBPD]
READOUT: protein stability index
READOUT_NUMBER: 4.42

RESIDUE_STRING: RRENYGVPPRRATISSWRNDRMST [RBMY1A1]
READOUT: protein stability index
READOUT_NUMBER: 3.31

Batch: protein stability index for all items listed.
1. TGPRLSFPLLPDHATALVEAFRLK [PPEF2]
2. SRVKCDQYWPSRGTETHGLVQVTL [PTPRD]
3. VEVDESEPYPSQLLKPIPEYSPEE [TRAF3IP2]
4. EQFHEAASKMESTIKPRRVEPVCS [CHCHD6]
5. LLQQNKSIQSLTLEWNSLGTWDDA [LRRC45]
6. DSYSSTQHVPEELDLSSSSQMSPL [ATF6]
7. HHLPLPDNWKSQVEPETRAVIRWM [CPN1]

[2.89, 2.42, 5.48, 4.42, 2.65, 5.29, 2.62]

Batch: protein stability index for all items listed.
1. ITTRVNSEQEHFLIVPFGLLYSEV [ADD1]
2. IETLRLAKNYIWALSEILRIGKRP [NEUROD6]
3. LLECYIQYHHSKIRNRGYNLIYRS [TMEM192]
4. VNPQDGTNTLTRIAENGVSERDSE [EHMT1]
5. EGSLEWDILEVKRLLDHQDNILSL [WDR41]
6. QSWMWRGLTFLLPFLFFGHFWQLF [TMEM120A]

1. 2.74
2. 3.08
3. 2.71
4. 5.56
5. 2.42
6. 2.66

Batch: protein stability index for all items listed.
1. PVGRSWHSLTPVSSDHLFLFGGFT [KLHDC2]
2. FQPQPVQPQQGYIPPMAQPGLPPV [ZNF207]
3. ISAVNYDFDEEYFSNTSELAKDFI [DAPK3]

1. 2.3
2. 3.5
3. 3.01

Batch: protein stability index for all items listed.
1. AQEKAADVQARLNRSDHGIFHSRT [FCHSD1]
2. RTPPKSPGDPSKDRAAKRLSLESE [TPPP]
3. CLLSSNSRSLLTGGYNLASVSVWD [TLE6]
4. PDKECRRCMQCDAKFDFLTRKHHC [ZFYVE21]
5. GKIDFPRHLDFHVKDLIKKLLVVD [PRKX]
6. RKFYVHIKPAPARAPACSPEAAAA [FCHO1]

1: 4.19; 2: 5.3; 3: 2.4; 4: 3.91; 5: 2.44; 6: 2.66

Batch: protein stability index for all items listed.
1. ELVVRFFACPSKTDFFKNIMNFID [KCNA1]
2. ATFLVTFGNSEKPETMTCRLSNNQ [ZFYVE21]
3. GTATRQNNWPPLPSFCPVQPCFFQ [SCAMP3]
4. GEKPFECNECGKAFRWGAHLVQHQ [ZNF232]
5. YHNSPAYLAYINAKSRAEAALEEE [SMARCE1]
6. EAEDQEEKEDAEKENIEKDEDDVD [SRPK2]

[2.32, 2.39, 2.42, 2.58, 2.53, 5.66]

Batch: protein stability index for all items listed.
1. GCVSRCWEVQVSPTCPVCKDRASP [TRIM35]
2. WDKHACPAYVGPEILSSRASYSGK [TRIB3]

[4.04, 3.53]

Batch: protein stability index for all items listed.
1. GLNSSWVELPMNSSNGNDNGNGKN [BNIP3L]
2. GSVGAAICGLQQDEEVSSLTCDAL [CCND2]
3. KEVGSHFDDFVTNLIEKSASLDNG [SOAT1]

1. 5.11
2. 4.54
3. 4.19

Batch: protein stability index for all items listed.
1. ATRVAPERLFGSAANVVSAKRNRL [ZBED1]
2. HQLLEPIRDFEARKCPVHGKTMEL [TRIM29]
3. ISFHFEVTNHNIRLFEDVRSWMFR [TRIM43]
4. LLYLLHILLLDGAAWLTLWVFGTS [FADS1]

1: 3.83; 2: 3.89; 3: 2.7; 4: 3.38

Look at this sequence and give its reported protein stability index. ISSVLAGGSCRAPSTYGGGLSVSS [KRT16]
2.38
